Source listed as PubChem BioAssay (NCI).

- Tested on: T-47D breast
- experiment: NCI tumour cell line growth inhibition, 48 h
# GI50 per entry

Would you please look over these solved cases?
INSERT INTO assay_data (compound, result) VALUES
  ('CCCCCCNC(=O)c1cc(NCc2cc(O)ccc2O)ccc1O', '1920 nM'),
  ('CCN(CC)c1ccc2c(c1)OC(N)=C(C#N)C2c1cc(OC)c2c(c1)OCO2 (stereo unspecified)', '3320 nM');

Prompt: Please indicate GI50 recorded for O=C(OC(CNc1cc(=O)n(Cc2ccccc2)c(=O)n1Cc1ccccc1)CN1CCCC1)c1ccccc1 (stereo unspecified)
Completion: 18900 nM

Prompt: Give the measured GI50 for O=C(Nc1ccc(Cl)cc1F)c1ccccc1O
Completion: 2490 nM

Prompt: Fill in reported GI50 for this entry: COc1cc2nc(-c3ccc(Cl)cc3)cc(OCCCN3CCCCC3)c2cc1OC
Completion: 1310 nM

Prompt: Name the recorded GI50 of the compound listed here: CC(C)CCN1c2nc(Nc3cc(F)c(O)c(F)c3)ncc2N(C)C(=O)C1C (stereo unspecified)
Completion: 6360 nM

----------
- System: A498 renal
- experiment: NCI tumour cell line growth inhibition, 48 h
experimental.endpoint: TGI

Reference set, count: 10
INSERT INTO measurements (molecule, experimental_endpoint, result) VALUES
  ('CS(=O)(=O)O[C@H]1CN2C[C@@H](O)[C@@H](O)[C@H]2[C@H]1CO', 'TGI', '> 100 µM'),
  ('OCCCCCCCCCCCOc1ccc(C2OCC3(CO2)COC(c2ccc(OCCCCCCCCCCCO)cc2)OC3)cc1 (stereo unspecified)', 'TGI', '> 50 µM'),
  ('N#CC(=C1C=CC(=NO)C=C1)c1ccccc1', 'TGI', '22.8 µM'),
  ('Nc1ccc(Oc2ccc(C34CC5CC6C3CC3CC4C(C5)C6(c4ccc(Oc5ccc(N)cc5)cc4)C3)cc2)cc1', 'TGI', '55.7 µM'),
  ('CO/N=C/c1cc(OC)c(OC)c(OC)c1', 'TGI', '> 100 µM'),
  ('C1C2CC3CC1CC(Nc1nc(NC45CC6CC(CC(C6)C4)C5)nc(NC45CC6CC(CC(C6)C4)C5)n1)(C2)C3', 'TGI', '> 100 µM'),
  ('CNC(C#N)c1ccc(OC)cc1 (stereo unspecified)', 'TGI', '> 100 µM'),
  ('CCCCCCCCCCCCOC1C(C(COC2OC(C3COC(C)(C)O3)C3OC(C)(C)OC23)NC(=O)Nc2ccc(C(=O)O)cc2)OC2OC(C)(C)OC21 (stereo unspecified)', 'TGI', '8.53 µM'),
  ('C=CCCCCC/C=C\[C@H](O)C#CC#C/C=C/CO', 'TGI', '51.9 µM'),
  ('Cc1cc2c(cc1Cl)SC(NS(=O)(=O)c1ccc(Cl)cc1)=NS2(=O)=O', 'TGI', '> 100 µM');

Prompt: Using known records, supply TGI for CCn1c(-c2nonc2N)nc2c(C#CC(C)(C)O)nc(OC[C@H](N)c3ccccc3)cc21
Completion: 7.63 µM

Prompt: Quickly give me recorded TGI for O=S1(=O)C[C@H](O)[C@H](O)CS1
Completion: > 100 µM

Prompt: Return the recorded TGI value; entry: O=C1NC(NNc2ccccc2)=N/C1=C\c1ccccc1O
Completion: > 100 µM

Prompt: Return TGI (reported value) for this molecule: COC(=O)C1=C(O)c2cc(OC)c(OC)cc2C(c2ccc(OC)c(OC)c2)C1 (stereo unspecified)
Completion: 98.2 µM

Prompt: Specify reported TGI for the molecule shown: COc1cc(C(Cc2ccccc2)NC(C)=O)oc(=O)c1 (stereo unspecified)
Completion: > 100 µM

----------
- System: SF-268 CNS
- experiment: NCI tumour cell line growth inhibition, 48 h; in the data active = GI50 below about 0.43 µM; inactive = the rest
Your reply should match one of these outcome classes. Yes = active, No = inactive

INSERT INTO assay_data (compound, category_label) VALUES
  ('C=CCCCCC/C=C\[C@H](O)C#CC#C/C=C/CO', 'No'),
  ('Clc1nc2ccccc2nc1CI', 'No'),
  ('CCCCCCNC(=O)c1cc(NCc2cc(O)ccc2O)ccc1O', 'No'),
  ('CCC(C)n1ncn(-c2ccc(N3CCN(c4ccc(OCC5COC(Cn6cncn6)(c6ccc(Cl)cc6Cl)O5)cc4)CC3)cc2)c1=O (stereo not drawn)', 'No'),
  ('Cn1cc(CO)c2c1C(=O)C=C(N1CC1)C2=O', 'Yes'),
  ('O=C(Nc1nc2ccc(C(F)(F)F)cc2s1)c1cc(Cl)ccc1O', 'No'),
  ('O=C(CNc1ccc(Cl)cc1)Nc1ccc(-c2nc3ccccc3s2)cc1', 'No');

Prompt: Which result was noted for this compound in the test: CN(C)CCCNC(=O)c1cc2[nH]c3c(cnc4ccc([N+](=O)[O-])cc43)c(=O)c2n1C
Completion: No

----------
- System: M14 melanoma
- experiment: NCI tumour cell line growth inhibition, 48 h; in the data active means GI50 below about 0.43 µM; inactive means the rest
// allowed return values: y (active), n (inactive)

Prompt: Dear colleague, could you share the recorded outcome for C=C1C(=O)O[C@@H]2C[C@@H]1CC/C(C)=C/CC/C(C)=C/CC[C@@]2(C)O when you have a moment?
Completion: n

Prompt: Hey, what did the test say about O=C(OC(CNc1cc(=O)n(Cc2ccccc2)c(=O)n1Cc1ccccc1)CN1CCCC1)c1ccccc1 (centres undefined) ?
Completion: n

Prompt: Write down the call the test reported for this compound. Item: CC(C)=CCNc1ncnc2c1ncn2C1OC(CO)C(O)C1O (centres undefined)
Completion: n

Prompt: Per the records of this test, what outcome belongs to Cc1ccc(C)c(C2=C(c3cn(C)c4ccccc34)C(=O)NC2=O)c1 ?
Completion: n

Prompt: Short answer needed: outcome of this test for CCCCCCCCCCCCCC1=NC(C)(C)CN1C(C)C ?
Completion: n

Prompt: Hi team, can someone confirm the assay call for N#Cc1c(NN)n(C2OC(CO)C(O)C2O)c2ncnc(N)c12 (centres undefined) ?
Completion: y

Prompt: Could you please tell me the result logged for C=C(CNCc1ccccc1)c1ccc(C(=O)Nc2ccccc2N)cc1 in this assay?
Completion: n

Prompt: Which outcome was assigned to O=C1NC(=O)C(c2cnc3ccccn23)=C1c1cn2c3c(cc(F)cc13)CN(C(=O)N1CCCCC1)CC2 in this test?
Completion: n

Prompt: Recorded test call requested for Cn1cc(CO)c2c1C(=O)C=C(N1CC1)C2=O
Completion: y

Prompt: Please state the recorded outcome for this compound: COc1ccc(CN2C(=O)/C(=C\C(=O)c3ccc(OCCN4CCCCC4)cc3)c3ccccc32)cc1
Completion: n

Prompt: Please state the recorded outcome for this compound: CCC(C)n1ncn(-c2ccc(N3CCN(c4ccc(OCC5COC(Cn6cncn6)(c6ccc(Cl)cc6Cl)O5)cc4)CC3)cc2)c1=O (centres undefined)
Completion: n

Prompt: Per the records of this test, what outcome belongs to O=C(Cc1ccc(/C=C/C(=O)c2ncc[nH]2)cc1)Nc1cc(F)c(F)c(F)c1 ?
Completion: n

Prompt: Write down the call the test reported for this compound. Item: CCC[CH2][Sn]1([CH2]CCC)[O]N=C(c2ccccc2)C(c2ccccc2)[O]1 (centres undefined)
Completion: n

Prompt: Test call, this compound: Cn1nc(N)c2cc([C@@H]3Nc4ccc5[nH]ncc5c4[C@H]4C5CCC(C5)[C@@H]34)ccc21 (some centres undefined)
Completion: y

----------
- Test system: PC-3 prostate
- experiment: NCI tumour cell line growth inhibition, 48 h
GI50 listing for selected compounds.

Completed entries (count: 6):
INSERT INTO assay_data (compound, result) VALUES
  ('CCCCCCCCCCCCOC1C(C(COC2OC(C3COC(C)(C)O3)C3OC(C)(C)OC23)NC(=O)Nc2ccc(C(=O)O)cc2)OC2OC(C)(C)OC21 (stereo not drawn)', '2600 nM'),
  ('CCOC(=O)CCCn1c(SC)nc2[nH]cc(-c3ccccc3)c2c1=O', '13800 nM'),
  ('COc1ccc(C(C)=O)cc1N1C(=O)C2C(C1=O)C1(c3ccccc3)C(=O)C2(c2ccccc2)C(c2ccc(C)cc2)=C1c1ccc(C)cc1 (stereo not drawn)', '> 100000 nM'),
  ('O=C1/C(=C/c2ccc(Br)cc2)COc2ccc(O)c(O)c21', '599 nM'),
  ('CCn1c(-c2nonc2N)nc2c(C#CC(C)(C)O)nc(OC[C@H](N)c3ccccc3)cc21', '3920 nM'),
  ('N#CC(=C1C=CC(=NO)C=C1)c1ccccc1', '671 nM');

Prompt: For the compound COc1ccc(CN2C(=O)/C(=C\C(=O)c3ccc(OCCN4CCCCC4)cc3)c3ccccc32)cc1 , give its reported GI50.
Completion: 2700 nM

Prompt: Identify GI50 associated with the compound C=C1CC[C@@H]2[C@](C)(COC(C)=O)[C@H](OC(C)=O)CC[C@@]2(C)[C@@H]1CC(Sc1ccccc1)C1=CCOC1=O (stereo partly drawn)
Completion: 1840 nM
